measured-on: human KOP receptor (Homo sapiens, UniProt P41145)
Sequence (P41145 whole entry): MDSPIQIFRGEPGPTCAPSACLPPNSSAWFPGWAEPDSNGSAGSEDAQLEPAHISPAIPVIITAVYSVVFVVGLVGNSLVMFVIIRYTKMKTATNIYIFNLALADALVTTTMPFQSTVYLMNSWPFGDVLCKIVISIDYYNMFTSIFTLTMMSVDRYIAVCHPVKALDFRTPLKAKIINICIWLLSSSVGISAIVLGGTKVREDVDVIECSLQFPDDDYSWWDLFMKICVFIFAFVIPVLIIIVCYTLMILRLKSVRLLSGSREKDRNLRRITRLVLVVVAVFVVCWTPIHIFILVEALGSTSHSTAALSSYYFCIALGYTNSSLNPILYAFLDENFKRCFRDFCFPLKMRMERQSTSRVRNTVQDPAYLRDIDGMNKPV
assay-protocol: biochemical
Recorded Kb, one value per entry.
State the answer as a number, implicitly in nM.

What the record says about CC(C)[C@@H](CN1CCC(c2cccc(CN)c2)CC1)NC(=O)[C@H]1Cc2ccc(O)cc2CN1 [Compound 10] : Kb is 0.38

The molecule listed as CC(C)[C@@H](CN1CCC(c2cccc(C#N)c2)CC1)NC(=O)[C@H]1Cc2ccc(O)cc2CN1 [Compound 8] shows Kb equal to 0.269

Briefly, Kb measured for CC(C)[C@@H](CN1CCC(c2cccc(CNC(=O)[C@@H](N)CCCNC(=N)N)c2)CC1)NC(=O)[C@H]1Cc2ccc(O)cc2CN1 [Compound 12] : 0.158

The reported value for CC(C)[C@@H](CN1CCC(C2CCCCC2)CC1)NC(=O)[C@H]1Cc2ccc(O)cc2CN1 [Compound 14] in terms of Kb is 0.0347

Origin of measurements: paper PMC5643385
